target: CDK2/Cyclin E complex (Homo sapiens); experiment: CDK2/Cyclin E fluorescence-based microfluidic mobility shift assay (CDK2 Biochemical Caliper Assay); details: read-out: Biochemical CDK2/CyclinE Caliper IC50
pIC50: −log10 of the molar value.
Observed property: pIC50

Take a look at these entries with their results.
{"Compound": "COCc1cc2c(Nc3cc([C@H]4C[C@@H](OC(=O)NC(C)(C)CN5CCOCC5)CO4)[nH]n3)nccn2n1", "Observed property": "pIC50", "Measured value": "6.00 to 6.60"}
{"Compound": "COCc1cc2c(Nc3cc([C@H]4C[C@@H](OC(=O)NC(C)(C)C(F)F)CO4)[nH]n3)nccn2n1", "Observed property": "pIC50", "Measured value": "≥ 7.00"}
{"Compound": "CC1(NC(=O)O[C@H]2CO[C@@H](c3cc(NC(=O)c4cnn(CCOC(F)(F)F)c4)n[nH]3)C2)CC1", "Observed property": "pIC50", "Measured value": "≥ 7.00"}
{"Compound": "COCc1nc2ccnc(Nc3cc([C@@H]4CC[C@H](OC(=O)NC(C)C)C4)[nH]n3)c2s1 (single isomer, unassigned)", "Observed property": "pIC50", "Measured value": "≥ 7.00"}
{"Compound": "Cc1cc(CC(=O)Nc2cc([C@@H]3CC[C@@H](Cc4nncn4C(C)C)C3)[nH]n2)on1 (single isomer, unassigned)", "Observed property": "pIC50", "Measured value": "4.00 to 6.00"}

Q: Provide value of pIC50 for this record tested with CDK2/Cyclin E complex (Homo sapiens): COCc1cc(C(=O)Nc2cc([C@H]3CC[C@@H](c4ccc(C)[nH]c4=O)C3)[nH]n2)n(C)n1 (single isomer, unassigned) [Example 542]
A: 6.00 to 6.60

Q: Param readout = pIC50; param system = CDK2/Cyclin E complex (Homo sapiens); param query = c1cc2c(nc1Nc1cc(C3CCCC3)[nH]n1)CCOC2 ; response: value
A: 4.00 to 6.00
